# TARGET SYSTEM: BTK (Homo sapiens)
# Sequence (Q06187 402-655 limits assumed): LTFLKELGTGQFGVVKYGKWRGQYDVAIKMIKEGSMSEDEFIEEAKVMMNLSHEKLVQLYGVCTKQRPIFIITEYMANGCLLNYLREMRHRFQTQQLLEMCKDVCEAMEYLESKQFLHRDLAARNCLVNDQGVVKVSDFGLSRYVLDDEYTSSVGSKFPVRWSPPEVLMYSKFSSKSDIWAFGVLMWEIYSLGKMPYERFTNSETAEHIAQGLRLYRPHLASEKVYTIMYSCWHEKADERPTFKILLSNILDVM
# ASSAY DETAILS: biochemical
# SETTINGS: read-out: BTK inhibition (%), 0.75 uM BTK, […] probe 3l, 15 min preincubation
We begin with a simple list: items and their reported inhibition at 10 µM.
RECORDED ENDPOINT: inhibition at 10 µM (%)

{"COMPOUND": "FC(F)(F)Oc1ccc2nc(-c3ccc(OCCOCCOc4ccc(-c5nc6ccc(OC(F)(F)F)cc6[nH]5)nc4)cn3)[nH]c2c1", "VALUE UNITS": "%", "MEAS VALUE": 32.4}
{"COMPOUND": "Nc1ncnc2c1ncn2[C@@H]1O[C@H](COP(=O)(O)OP(=O)(O)O)[C@@H](O)[C@H]1O", "VALUE UNITS": "%", "MEAS VALUE": 3.1}
{"COMPOUND": "CCOC(CN1CCN(CC(C)C(=O)c2ccccc2)CC1)c1ccccc1 (centres unmarked)", "VALUE UNITS": "%", "MEAS VALUE": -6.8}
{"COMPOUND": "O=C(c1ccc(OCCCc2cnc[nH]2)cc1)C1CC1", "VALUE UNITS": "%", "MEAS VALUE": -14.5}
{"COMPOUND": "C=C(C)[C@@H]1CC[C@]2(C)CC[C@]3(C)[C@H](CC[C@@H]4[C@@]5(C)CC[C@H](O)C(C)(C)[C@@H]5CC[C@]43C)[C@@H]12", "VALUE UNITS": "%", "MEAS VALUE": -9.4}
{"COMPOUND": "O=C(O)c1ccco1", "VALUE UNITS": "%", "MEAS VALUE": -21.8}
{"COMPOUND": "Nc1nc(NCCNc2ncc(-n3ccnc3)c(-c3ccc(Cl)cc3Cl)n2)ccc1[N+](=O)[O-]", "VALUE UNITS": "%", "MEAS VALUE": 20.7}
{"COMPOUND": "O=C(O)c1ccc2c(c1)C(=O)c1ccccc1C2=O", "VALUE UNITS": "%", "MEAS VALUE": 9.3}
{"COMPOUND": "COc1ccc(C(=O)O)c(O)c1", "VALUE UNITS": "%", "MEAS VALUE": 2.3}
{"COMPOUND": "Nc1ccnc(=O)[nH]1", "VALUE UNITS": "%", "MEAS VALUE": -5.4}
{"COMPOUND": "COc1ccc(/C=C/c2cc(O)cc(O)c2)cc1O", "VALUE UNITS": "%", "MEAS VALUE": 14.7}
{"COMPOUND": "COC(=O)C1=C(C#N)NC(C)=C(C(=O)OC(C)C)C1c1cccc([N+](=O)[O-])c1 (centres unmarked)", "VALUE UNITS": "%", "MEAS VALUE": 14.8}
{"COMPOUND": "CC(C)N(CCC(=O)c1ccc2ccccc2c1)Cc1ccccc1", "VALUE UNITS": "%", "MEAS VALUE": 29}
{"COMPOUND": "Cc1ccc(C(=O)O)c(O)c1", "VALUE UNITS": "%", "MEAS VALUE": 10}
{"COMPOUND": "Cc1cnc(Nc2ccc(F)cc2Cl)nc1-c1c[nH]c(C(=O)N[C@H](CO)c2cccc(Cl)c2)c1", "VALUE UNITS": "%", "MEAS VALUE": 60}
{"COMPOUND": "CN(CC(=O)O)C(N)=NP(=O)(O)O", "VALUE UNITS": "%", "MEAS VALUE": -5.1}
{"COMPOUND": "O=C(O)CCCNC(=O)c1cccnc1", "VALUE UNITS": "%", "MEAS VALUE": -17}
{"COMPOUND": "O=C(O)C(Cl)Cl", "VALUE UNITS": "%", "MEAS VALUE": -8.5}
{"COMPOUND": "Cc1ccc(NS(=O)(=O)c2ccc3c(c2)C2C=CCC2C(c2ccc(C(=O)O)cc2)N3)cc1C (centres unmarked)", "VALUE UNITS": "%", "MEAS VALUE": 92.7}
{"COMPOUND": "Cc1ccc(NC(=O)c2cccc(C(C)(C)C#N)c2)cc1Nc1ccc2ncn(C)c(=O)c2c1", "VALUE UNITS": "%", "MEAS VALUE": 44.1}
{"COMPOUND": "O=C(Nc1cc2cc[nH]c2cn1)c1ccccc1", "VALUE UNITS": "%", "MEAS VALUE": 0.8}
{"COMPOUND": "O=C(CCCCCCNC(=O)c1cnc(N(c2ccccc2)c2ccccc2)nc1)NO", "VALUE UNITS": "%", "MEAS VALUE": -18.5}
{"COMPOUND": "CCOc1ccc(NC(C)=O)cc1", "VALUE UNITS": "%", "MEAS VALUE": 5.5}
{"COMPOUND": "C[C@H](CCC(=O)O)[C@H]1CC[C@H]2[C@@H]3[C@@H](O)C[C@@H]4C[C@H](O)CC[C@]4(C)[C@H]3CC[C@]12C", "VALUE UNITS": "%", "MEAS VALUE": 24.1}
{"COMPOUND": "NC(Cc1c[nH]c2ccc(O)cc12)C(=O)O (centres unmarked)", "VALUE UNITS": "%", "MEAS VALUE": -2.3}
{"COMPOUND": "COc1ccnc2[nH]cc(C(=O)C(=O)N3CCN(C(=O)c4ccccc4)C[C@H]3C)c12", "VALUE UNITS": "%", "MEAS VALUE": 0.7}

---

# TARGET SYSTEM: BTK (Homo sapiens)
# ASSAY DETAILS: biochemical
# SETTINGS: read-out: BTK inhibition (%), 0.75 uM BTK, […] probe 3l, 15 min preincubation

{"COMPOUND": "Clc1ccc(C(Cn2ccnc2)OCc2ccsc2Cl)c(Cl)c1 (stereo not shown)", "inhibition at 10 µM (%)": -41.2}
{"COMPOUND": "CCn1c(=O)c2c(nc(/C=C/c3ccc(OC)c(OC)c3)n2C)n(CC)c1=O", "inhibition at 10 µM (%)": -25.7}
{"COMPOUND": "CO[C@H]1/C=C/O[C@@]2(C)Oc3c(C)c(O)c4c(O)c(c5c(c4c3C2=O)=NC2(CCN(CC(C)C)CC2)N=5)NC(=O)/C(C)=C\\C=C\\[C@H](C)[C@H](O)[C@@H](C)[C@@H](O)[C@@H](C)[C@H](OC(C)=O)[C@@H]1C", "inhibition at 10 µM (%)": 7}
{"COMPOUND": "Cc1cccc(C)c1NC(=O)C1CCCCN1C (stereo not shown)", "inhibition at 10 µM (%)": 3.4}
{"COMPOUND": "CC(C)N(CC[C@H](c1ccccc1)c1cc(CO)ccc1O)C(C)C", "inhibition at 10 µM (%)": 3.9}
{"COMPOUND": "O=C1CCc2ccc(O)cc2N1", "inhibition at 10 µM (%)": 9.3}
{"COMPOUND": "CN[C@@H]1[C@@H](O[C@H]2O[C@H](CO)[C@@H](N)[C@H](O)[C@H]2O)O[C@H]2C[C@@H](N)[C@@H](O[C@H]3[C@H](O)[C@@H](O)[C@H](N)C[C@@H]3N)O[C@@H]2[C@@H]1O", "inhibition at 10 µM (%)": 8.5}

---

# TARGET SYSTEM: UniProt Q06187
# ASSAY DETAILS: biochemical
# SETTINGS: read-out: BTK inhibition (%), 0.75 uM BTK, […] probe 3l, 15 min preincubation

{"COMPOUND": "CN(CCOc1ccc(NS(C)(=O)=O)cc1)CCc1ccc(NS(C)(=O)=O)cc1 [PCM-0065138]", "inhibition at 10 µM [%]": -7}
{"COMPOUND": "Cn1nc(C(C)(C)C)cc1C(=O)N[C@@H](Cc1cccc(Cl)c1)C(=O)NCC#N [PCM-0095472]", "inhibition at 10 µM [%]": -18.7}
{"COMPOUND": "CCOc1nc2cccc(C(=O)O)c2n1Cc1ccc(-c2ccccc2-c2nn[nH]n2)cc1 [PCM-0086226]", "inhibition at 10 µM [%]": 24.1}
{"COMPOUND": "CN1CCN(c2ccc(-c3ccncc3-c3cc(F)c(O)c(F)c3)cc2)CC1 [PCM-0215608]", "inhibition at 10 µM [%]": 6.2}
{"COMPOUND": "Cc1ccc2nc(NCCN)c3ncc(C)n3c2c1 [PCM-0215260]", "inhibition at 10 µM [%]": -16.6}
{"COMPOUND": "COCCNC(=O)Nc1ccc2nc(-c3cccs3)c(-c3cccs3)nc2c1 [PCM-0215879]", "inhibition at 10 µM [%]": 6.9}
{"COMPOUND": "O=C(CCCCc1ccc2c(c1)OCO2)N1CCCCC1 [PCM-0216131]", "inhibition at 10 µM [%]": -17.8}
{"COMPOUND": "OC[C@H]1OC(O)[C@H](O)[C@@H](O)[C@@H]1O (some centres unmarked) [PCM-0095297]", "inhibition at 10 µM [%]": -10.1}
{"COMPOUND": "Cc1nc(Nc2ccc(F)cc2)nc(N2CCc3ccccc3C2C)c1C (centres unmarked) [PCM-0216015]", "inhibition at 10 µM [%]": 79.3}
{"COMPOUND": "O=C1C2=C(CCN(Cc3ccccc3)C2)N2CCN=C2N1Cc1ccc(C(F)(F)F)cc1 [PCM-0215923]", "inhibition at 10 µM [%]": 2.3}
{"COMPOUND": "CCCCc1nc2cc(/C=C/C(=O)NO)ccc2n1CCN(CC)CC [PCM-0095187]", "inhibition at 10 µM [%]": 9.7}
